Quick list: inhibition per entry.
# experimentalSystem: Ribosomal protein S6 kinase alpha-2 (Homo sapiens) (UniProt Q15349);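 note: value is the mean inhibition of RSK3 within GSK PKIS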
# Sequence (Q15349 whole entry): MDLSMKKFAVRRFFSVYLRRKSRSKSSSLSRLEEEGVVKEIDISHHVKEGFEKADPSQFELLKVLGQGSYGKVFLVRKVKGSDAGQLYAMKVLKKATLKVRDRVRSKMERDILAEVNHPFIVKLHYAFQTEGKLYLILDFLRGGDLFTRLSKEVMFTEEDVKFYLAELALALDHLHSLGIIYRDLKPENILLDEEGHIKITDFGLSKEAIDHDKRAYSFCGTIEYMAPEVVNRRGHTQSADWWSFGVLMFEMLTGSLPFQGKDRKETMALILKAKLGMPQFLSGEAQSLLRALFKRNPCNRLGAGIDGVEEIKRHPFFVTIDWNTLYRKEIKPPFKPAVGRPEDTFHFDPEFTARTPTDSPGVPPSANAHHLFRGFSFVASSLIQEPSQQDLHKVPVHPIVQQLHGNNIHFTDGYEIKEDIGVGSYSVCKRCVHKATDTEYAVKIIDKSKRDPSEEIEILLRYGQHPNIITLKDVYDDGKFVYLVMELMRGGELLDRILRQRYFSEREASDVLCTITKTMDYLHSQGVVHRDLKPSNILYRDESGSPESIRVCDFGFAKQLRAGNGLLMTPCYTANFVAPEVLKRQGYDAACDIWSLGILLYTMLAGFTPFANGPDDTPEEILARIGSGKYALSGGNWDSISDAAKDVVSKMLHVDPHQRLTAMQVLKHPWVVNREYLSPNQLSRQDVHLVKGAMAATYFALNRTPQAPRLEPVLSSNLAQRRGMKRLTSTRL
# experimentalParameters: at 1 µM

recordSmiles: FC(F)(F)c1ccc(-c2nn3ncccc3c2-c2ccnc(Nc3ccc4c(c3)OCCO4)n2)cc1
inhibition (%): 0.6
--
recordSmiles: CN(C)c1cc2c(Nc3ccc4c(cnn4Cc4ccccc4)c3)ncnc2cn1
inhibition (%): 3.42
--
recordSmiles: [O-][S+]1CCN(Cc2ccc(-c3ccc4ncnc(Nc5ccc(OCc6ccccc6)c(Cl)c5)c4c3)o2)CC1
inhibition (%): 0.54
--
recordSmiles: CN(C)CCCn1c(-c2nonc2N)nc2cnccc21
inhibition (%): 16.4
--
recordSmiles: CCOc1nccc2c1nc(-c1nonc1N)n2CC
inhibition (%): 27.9
--
recordSmiles: Cc1ccc(Nc2ccnc(Nc3cccc(C(N)=O)c3)n2)cc1O
inhibition (%): 3.37
--
recordSmiles: Cc1ccc(NC(=O)CC2CC2)cc1-c1ccc(C(=O)NCC2CC2)cc1
inhibition (%): 2.04
--
recordSmiles: COc1ccc2ncnc(Nc3ccc(OCc4ccccc4)cc3)c2c1
inhibition (%): 0.99
--
recordSmiles: ON=C1CCc2cc(-c3nc(C4CCNCC4)[nH]c3-c3ccncc3)ccc21
inhibition (%): 1.01
--
recordSmiles: COc1cc(/C=N/Nc2ncnc3c2cnn3C(C)C)ccc1O
inhibition (%): 2.99
--
recordSmiles: Cc1cc(O)cc(C)c1/C=C/c1cncc(C(=O)N(C)C)c1
inhibition (%): 2.22

====

# experimentalSystem: BDNF/NT-3 growth factors receptor (Homo sapiens) (UniProt Q16620);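 note: values are the mean percent inhibition of TRKB kinase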
# Sequence (Q16620 32-822 limits assumed): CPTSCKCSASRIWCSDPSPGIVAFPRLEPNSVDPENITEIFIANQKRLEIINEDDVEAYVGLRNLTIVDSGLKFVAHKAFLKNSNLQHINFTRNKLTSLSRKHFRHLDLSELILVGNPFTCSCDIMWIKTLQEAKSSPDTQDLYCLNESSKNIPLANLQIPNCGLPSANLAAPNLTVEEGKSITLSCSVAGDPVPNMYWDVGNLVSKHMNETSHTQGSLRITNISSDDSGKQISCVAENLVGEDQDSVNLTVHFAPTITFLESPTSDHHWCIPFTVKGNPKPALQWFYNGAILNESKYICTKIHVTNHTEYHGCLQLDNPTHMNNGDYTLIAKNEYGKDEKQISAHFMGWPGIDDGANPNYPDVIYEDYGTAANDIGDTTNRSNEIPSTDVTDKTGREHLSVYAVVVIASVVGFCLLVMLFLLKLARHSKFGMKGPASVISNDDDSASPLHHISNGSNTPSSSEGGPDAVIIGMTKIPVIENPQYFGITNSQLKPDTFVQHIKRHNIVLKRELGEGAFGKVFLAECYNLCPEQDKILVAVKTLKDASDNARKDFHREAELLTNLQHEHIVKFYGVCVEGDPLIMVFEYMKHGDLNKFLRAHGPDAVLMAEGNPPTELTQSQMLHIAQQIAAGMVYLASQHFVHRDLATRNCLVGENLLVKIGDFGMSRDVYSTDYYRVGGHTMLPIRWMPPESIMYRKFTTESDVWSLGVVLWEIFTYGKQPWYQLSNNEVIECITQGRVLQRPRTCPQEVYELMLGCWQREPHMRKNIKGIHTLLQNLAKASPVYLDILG
# experimentalParameters: at 1 µM
Item-by-item account of inhibition

molecule: CN(C)CCCn1c(-c2nonc2N)nc2cnccc21
inhibition [%]: 3.55
//
molecule: FC(F)(F)c1ccc(-c2nn3ncccc3c2-c2ccnc(Nc3ccc4c(c3)OCCO4)n2)cc1
inhibition [%]: 3.15
//
molecule: ON=C1CCc2cc(-c3nc(C4CCNCC4)[nH]c3-c3ccncc3)ccc21
inhibition [%]: -1.18
//
molecule: CN(C)C(=O)O[C@H]1CN[C@H](C#Cc2cc3ncnc(Nc4ccc(OCc5cccc(F)c5)c(Cl)c4)c3s2)C1
inhibition [%]: 2.03
//
molecule: Cc1ccc2c(-c3ccnc(Nc4ccc5c(c4)OCCO5)n3)c(-c3ccc(C(F)(F)F)cc3)nn2n1
inhibition [%]: 0.09
//
molecule: Nc1nccc(-c2c(-c3ccc(F)cc3)ncn2CCCN2CCOCC2)n1
inhibition [%]: 6.6
//
molecule: CCOc1nccc2c1nc(-c1nonc1N)n2CC
inhibition [%]: 5.51
//
molecule: NS(=O)(=O)c1ccc(NC=C2C(=O)Nc3ccc4ncsc4c32)cc1
inhibition [%]: 80.2
//
molecule: O=C1Nc2ccc(-c3cccnc3)cc2C1=Cc1cc(Br)c(O)c(Br)c1
inhibition [%]: 12.2
//
molecule: NS(=O)(=O)c1cccc(Nc2cc(-c3ccc(F)cc3)n[nH]2)c1
inhibition [%]: 26.1
//
molecule: CCn1c(-c2nonc2N)nc2ccc(F)cc21
inhibition [%]: 4.23
//
molecule: O=C(Nc1ccc(Oc2ccc3[nH]c(NC(=O)c4ccco4)nc3c2)cc1)Nc1cc(C(F)(F)F)ccc1F
inhibition [%]: 73.9
//
molecule: Cc1ccc2c(c1)/C(=N/Nc1ccc(S(N)(=O)=O)cc1)C(=O)N2
inhibition [%]: 31.2
//
molecule: COc1ccc(-c2nn3ncccc3c2-c2ccnc(Nc3cccc(C(F)(F)F)c3)n2)cc1
inhibition [%]: 3.32
//
molecule: CCS(=O)(=O)c1ccc(OC)c(Nc2ncc(-c3cccc(OC)c3)o2)c1
inhibition [%]: 43.5
//
molecule: Cc1cc(Cl)cc2c1NC(=O)C2=NNc1ccc(S(N)(=O)=O)cc1
inhibition [%]: 4.46
//
molecule: Cc1cc(O)cc(C)c1/C=C/c1cncc(C(=O)N(C)C)c1
inhibition [%]: 0.08
//
molecule: COC(=O)c1cncc(/C=C/c2c(C)cc(O)cc2C)c1
inhibition [%]: 4.35
//
molecule: CC(C)c1ccc2c(c1)NC(=O)/C2=N/Nc1ccc(S(N)(=O)=O)cc1
inhibition [%]: 31.5
//
molecule: CCCN1CCCC(c2ccc(Nc3nc(Nc4cc(F)ccc4C(N)=O)c4cc[nH]c4n3)c(OC)c2)C1 (stereo unspecified)
inhibition [%]: 6.11
//
molecule: OCc1ccc(-c2nc(-c3ccccn3)c(-c3ccc4c(c3)OCO4)[nH]2)cc1
inhibition [%]: 1
//
molecule: C[C@@H](Oc1cc(-n2cnc3ccc(OC[C@@H](O)CO)cc32)sc1C(N)=O)c1ccccc1Cl
inhibition [%]: 14.7
//
molecule: COc1cccc(-n2ncc3c(N/N=C/c4ccc(S(C)(=O)=O)cc4)ncnc32)c1
inhibition [%]: 19.3
//
molecule: CCn1c(-c2nonc2N)nc2c(C#CC(C)(C)O)nc(OCCNC)cc21
inhibition [%]: 3.59
//
molecule: COc1cccc(-n2nc(C)c3c(N/N=C(\C)c4ccncc4)ncnc32)c1
inhibition [%]: 0.69
//
molecule: COC(=O)Nc1nc2cc(Oc3ccc(NC(=O)Nc4cccc(Br)c4)cc3)ccc2[nH]1
inhibition [%]: 32.5
//
molecule: COc1cc2ncnc(Nc3ccc(C)c(O)c3)c2cc1OC
inhibition [%]: 6.25
//
molecule: NS(=O)(=O)c1ccc(-c2cc3ccncc3cc2OCc2ccccc2)cc1
inhibition [%]: 2.46
//
molecule: Cc1nc(-c2ccccc2)n2nc(NCCCN3CCOCC3)ncc12
inhibition [%]: 3.5
//
molecule: c1ccc(Nc2ncc(-c3ccccc3)o2)cc1
inhibition [%]: 9.78
//
molecule: N#Cc1c(NC(=O)c2ccccc2F)sc2c1CCCC2
inhibition [%]: -1.97

====

# experimentalSystem: Serine/threonine-protein kinase SIK1 (Homo sapiens) (UniProt P57059)
# Sequence (P57059 whole entry): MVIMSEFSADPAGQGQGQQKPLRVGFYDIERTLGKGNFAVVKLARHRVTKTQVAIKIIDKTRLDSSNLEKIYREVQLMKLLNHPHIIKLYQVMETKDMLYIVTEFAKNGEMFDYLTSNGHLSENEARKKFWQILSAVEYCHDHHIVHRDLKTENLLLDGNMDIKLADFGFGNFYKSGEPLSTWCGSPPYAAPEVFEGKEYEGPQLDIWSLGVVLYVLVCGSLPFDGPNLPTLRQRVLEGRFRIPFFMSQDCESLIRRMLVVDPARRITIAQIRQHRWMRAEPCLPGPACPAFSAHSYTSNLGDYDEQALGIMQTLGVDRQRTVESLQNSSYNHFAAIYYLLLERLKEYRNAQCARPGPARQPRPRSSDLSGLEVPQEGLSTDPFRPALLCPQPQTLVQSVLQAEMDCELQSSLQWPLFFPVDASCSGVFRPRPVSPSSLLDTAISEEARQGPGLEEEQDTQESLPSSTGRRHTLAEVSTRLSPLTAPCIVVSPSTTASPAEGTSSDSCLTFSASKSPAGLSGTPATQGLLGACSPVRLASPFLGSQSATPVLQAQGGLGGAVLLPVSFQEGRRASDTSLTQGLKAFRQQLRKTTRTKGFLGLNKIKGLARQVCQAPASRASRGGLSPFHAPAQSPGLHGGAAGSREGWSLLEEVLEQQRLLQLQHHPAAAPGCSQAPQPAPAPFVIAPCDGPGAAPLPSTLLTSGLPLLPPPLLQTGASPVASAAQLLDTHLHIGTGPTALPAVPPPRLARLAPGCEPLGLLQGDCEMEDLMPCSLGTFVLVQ
# experimentalParameters: at 1 µM
Recorded inhibition by entry

recordSmiles: CN(C)CCCn1c(-c2nonc2N)nc2cnccc21
experimentalSystem: Serine/threonine-protein kinase SIK1 (Homo sapiens) (UniProt P57059)
inhibition, %: 8.57
--
recordSmiles: Cc1ccc2c(-c3ccnc(Nc4cccc(C(F)(F)F)c4)n3)c(-c3ccccc3)nn2n1
experimentalSystem: Serine/threonine-protein kinase SIK1 (Homo sapiens) (UniProt P57059)
inhibition, %: 15.8
--
recordSmiles: Cc1nc(-c2ccccc2)n2nc(NCCCN3CCOCC3)ncc12
experimentalSystem: Serine/threonine-protein kinase SIK1 (Homo sapiens) (UniProt P57059)
inhibition, %: 5.24
--
recordSmiles: O=C(Nc1ccc(Oc2ccc3[nH]c(NC(=O)c4ccco4)nc3c2)cc1)Nc1cc(C(F)(F)F)ccc1F
experimentalSystem: Serine/threonine-protein kinase SIK1 (Homo sapiens) (UniProt P57059)
inhibition, %: 4.41
--
recordSmiles: CN(c1ccc(NC(=O)Nc2ccc(OC(F)(F)F)cc2)cc1)c1ccnc(Nc2cccc(S(N)(=O)=O)c2)n1
experimentalSystem: Serine/threonine-protein kinase SIK1 (Homo sapiens) (UniProt P57059)
inhibition, %: 7.29
--
recordSmiles: COc1cccc(-n2nc(C)c3c(N/N=C(\C)c4ccncc4)ncnc32)c1
experimentalSystem: Serine/threonine-protein kinase SIK1 (Homo sapiens) (UniProt P57059)
inhibition, %: 3.69
--
recordSmiles: c1ccc(Cc2nc3ccc(Nc4ncnc5ccccc45)cc3[nH]2)cc1
experimentalSystem: Serine/threonine-protein kinase SIK1 (Homo sapiens) (UniProt P57059)
inhibition, %: 5.43
--
recordSmiles: CN(C)c1cc2c(Nc3ccc4c(cnn4Cc4ccccc4)c3)ncnc2cn1
experimentalSystem: Serine/threonine-protein kinase SIK1 (Homo sapiens) (UniProt P57059)
inhibition, %: 4.59
--
recordSmiles: NS(=O)(=O)c1ccc(NC=C2C(=O)Nc3ccc4ncsc4c32)cc1
experimentalSystem: Serine/threonine-protein kinase SIK1 (Homo sapiens) (UniProt P57059)
inhibition, %: 34.1
--
recordSmiles: N#Cc1cccc(Nc2nccc(-c3cnn4ncccc34)n2)c1
experimentalSystem: Serine/threonine-protein kinase SIK1 (Homo sapiens) (UniProt P57059);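 note: mean inhibition value from the GSK PKIS profiling set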
inhibition, %: 15.1

====

Listing: inhibition of selected compounds
# experimentalSystem: cAMP-dependent protein kinase catalytic subunit alpha (Homo sapiens);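 note: mean percent inhibition of PKA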
# experimentalParameters: at 1 µM

recordSmiles: Nc1nccc(C#Cc2cncnc2Nc2ccc(OCc3cccc(F)c3)c(Cl)c2)n1
inhibition: 2.74%
//
recordSmiles: CS(=O)(=O)Nc1cccc(-c2ccc3c(NC(=O)C4CC4)n[nH]c3c2)c1
inhibition: 1.02%
//
recordSmiles: Cc1ccc2c(-c3ccnc(Nc4cccc(C(F)(F)F)c4)n3)c(-c3ccccc3)nn2n1
inhibition: 4.26%
//
recordSmiles: O=C1Nc2ccccc2/C1=C/Nc1ccc2[nH]c(=O)[nH]c2c1
inhibition: 4.1%
//
recordSmiles: Cc1ccc(O)cc1Nc1ccnc2ccc(S(C)(=O)=O)cc12
inhibition: 11.9%
//
recordSmiles: Nc1nccc(-c2c(-c3ccc(F)cc3)ncn2CCCN2CCOCC2)n1
inhibition: 9.33%
//
recordSmiles: Nc1nccc(-c2c(-c3ccc(F)cc3)nn3cc(C(F)(F)F)ccc23)n1
inhibition: 2.17%
//
recordSmiles: COc1ccc(-c2nn3ncccc3c2-c2ccnc(Nc3cccc(C(F)(F)F)c3)n2)cc1
inhibition: 2.61%
//
recordSmiles: Cc1ccc(NC(=O)CC2CC2)cc1-c1ccc(C(=O)NCC2CC2)cc1
inhibition: 0.41%
//
recordSmiles: CCn1c(-c2nonc2N)nc2c(C#CC(C)(C)O)nc(OCCNC)cc21
inhibition: 49.2%
//
recordSmiles: Cc1cc(O)cc(C)c1/C=C/c1cncc(C(=O)N(C)C)c1
inhibition: 0.93%
//
recordSmiles: c1ccc(Nc2ncc(-c3ccccc3)o2)cc1
inhibition: 3.41%
